target of assay: TDO2 (Homo sapiens)
Construct: decreased levels of NFK in SW48 cells (high TDO expressing cells)
assay protocol: TDO2 cell assay (NFK GreenScreen, SW48 cells)
Type: cell-based
study conditions: SW48 cells (high TDO expressing), 200 uM tryptophan, 24 hours; Table 3; read-out: TDO2 Cell Fluor EC50
observed property: pEC50
Schema: pEC50 number; meaning minus log10 of the concentration expressed in molar units.

Would you kindly share the measured pEC50 for CC1(C)CCCC(C2c3ccccc3-c3cncn32)C1O (single isomer, unassigned) [Example 24b] ?
5.06

Try the compound Cc1cnn2c1C(O)C(C1c3ccccc3-c3cncn31)CC2 (single isomer, unassigned) [Example 159c]
6.60

Try the compound Nc1cc2n(n1)CCC(C1c3ccccc3-c3cncn31)C2O (stereo not shown) [Example 161d]
4.92

Try the compound CC1(C)OCC(C2c3ccccc3-c3cncn32)C1O (single isomer, unassigned) [Example 85a]
4.62

Try the compound N#CCN1CCC(O)C(C2c3ccccc3-c3cncn32)C1 (single isomer, unassigned) [Example 14c]
4.70

====

target of assay: TDO2 (Homo sapiens, UniProt P48775)
Construct: decreased levels of NFK in SW48 cells (high TDO expressing cells)
Sequence (P48775 whole entry): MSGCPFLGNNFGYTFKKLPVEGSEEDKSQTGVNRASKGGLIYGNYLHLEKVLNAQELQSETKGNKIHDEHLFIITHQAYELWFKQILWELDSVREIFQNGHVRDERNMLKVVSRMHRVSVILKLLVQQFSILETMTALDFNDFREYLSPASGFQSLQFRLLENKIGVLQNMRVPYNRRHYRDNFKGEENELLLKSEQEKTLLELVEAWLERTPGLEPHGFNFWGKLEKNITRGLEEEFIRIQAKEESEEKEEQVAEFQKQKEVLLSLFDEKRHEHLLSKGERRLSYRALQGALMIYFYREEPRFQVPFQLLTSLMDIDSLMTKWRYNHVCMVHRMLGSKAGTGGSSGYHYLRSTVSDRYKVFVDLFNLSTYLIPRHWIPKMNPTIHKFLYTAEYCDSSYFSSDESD
assay protocol: TDO2 cell assay (NFK GreenScreen, SW48 cells)
Type: cell-based
study conditions: SW48 cells (high TDO expressing), 200 uM tryptophan, 24 hours; Table 3; read-out: TDO2 Cell Fluor EC50
Criterion: EC50 strictly less than 2 µM. Met: rule met. Not met: rule not met.

Confirm or reject: EC50 of O[C@H](C1CCCCC1)[C@@H]1c2ccccc2-c2cncn21 [Example 148a] lies strictly below 2 µM
rule not met

Try the molecule Nc1ccc2c(n1)CCC(C1c3ccccc3-c3cncn31)C2O (single isomer, unassigned) [Example 121b]
rule not met

Try the molecule NC(=O)C1CCC(O)(C2c3ccccc3-c3cncn32)CC1 (single isomer, unassigned) [Example 140c]
rule not met

Try the molecule Nc1ncc2c(n1)CCC(C1c3ccccc3-c3cncn31)C2O (single isomer, unassigned) [Example 111d]
rule not met

Try the molecule OC1C(C2c3ccc(F)cc3-c3cncn32)CC12CCOCC2 (single isomer, unassigned) [Example 109f]
rule not met

Try the molecule CCS(=O)(=O)N1CCC2(CC1)CC(C1c3ccccc3-c3cncn31)C2O (single isomer, unassigned) [Example 114f]
rule met

Try the molecule OC1c2nncn2CCC1C1c2ccccc2-c2cncn21 (single isomer, unassigned) [Example 146-1b]
rule not met

Try the molecule Cn1ncc2c1CCC(C1c3ccccc3-c3cncn31)C2O (single isomer, unassigned) [Example 93g]
rule not met

Try the molecule CC(C)(C)OC(=O)N1CCC(C2c3ccccc3-c3cncn32)C(O)C1 (single isomer, unassigned) [Example 10a]
rule not met

Try the molecule OC1CCCOCC1C1c2ccccc2-c2cncn21 (single isomer, unassigned) [Example 86f]
rule met

Try the molecule NS(=O)(=O)c1ccc2c(c1)CCC(C1c3ccccc3-c3cncn31)C2O (single isomer, unassigned) [Example 100e]
rule met

Try the molecule CS(=O)(=O)c1ccc2c(c1)OCC(C1c3ccccc3-c3cncn31)C2O (single isomer, unassigned) [Example 91b]
rule not met

Try the molecule OC1c2nccn2CCC1C1c2ccccc2-c2cncn21 (single isomer, unassigned) [Example 88a]
rule not met

Try the molecule CCS(=O)(=O)N1CCC2(CC1)C[C@@H]([C@@H]1c3ccccc3-c3cncn31)[C@@H]2O [Example 114b]
rule not met

Try the molecule CN(C)C(=O)c1ccc2c(c1)CCC(C1c3ccccc3-c3cncn31)C2O (single isomer, unassigned) [Example 98c]
rule met
